# protocol: Quantitative High-Throughput drug screen in 47 multiple myeloma cell lines against the NCATS MIPE library collection: KMS28PE_JCRB cell viability assay (AID 1918983); also: nearly all actives have a fitted effect of over 35% in size
# assay.conditions: KMS28PE multiple myeloma viability, CellTiter-Glo ATP, 48 h; series mostly up to 45.8 µM
Inconclusive results are not listed. The source made the active and inactive calls. Calls follow the shape of the dose curve; as a rule, active = well fitted cell-killing curve with a large enough effect; inconclusive = small, poorly fitted or top-dose-only effect, or effect the other way; inactive = no such curve, though single readings can be large or run the other way.
Hi there, use one of these labels in your reply, thanks! YES (active), NO (inactive)

Example cases with answers are listed next.
compound	category.label
CCC1(C)CC(=O)NC1=O (stereo not drawn)	NO
Nc1c2c(nc3ccccc13)CCCC2	YES
CN(CCOc1ccc(NS(C)(=O)=O)cc1)CCc1ccc(NS(C)(=O)=O)cc1	NO

Prompt: Record request — test call for Clc1ccc2nsnc2c1NC1=NCCN1
Completion: NO

Prompt: Assay result, entry O=C(Nc1ccc([N+](=O)[O-])cc1Cl)c1cc(Cl)ccc1O — outcome?
Completion: YES

Prompt: Just curious, what result did COc1nc(C)nc(Cl)c1NC1=NCCN1 get here?
Completion: NO

Prompt: How was O=C(c1ccc(F)cc1)C1CCN(CCn2c(=O)[nH]c3ccccc3c2=O)CC1 classified in this test?
Completion: NO

Prompt: Can you look up the reported call for CCN1CCCC1CNC(=O)c1cc(S(=O)(=O)CC)c(N)cc1OC (stereo not drawn) for me?
Completion: NO

Prompt: Which outcome did this test record for the compound Nc1ccn([C@H]2CC[C@@H](CO)O2)c(=O)n1 ?
Completion: NO

Prompt: So what was the verdict on O=C(C1CCCCC1)N1CC(=O)N2CCc3ccccc3C2C1 (stereo not drawn) in this test?
Completion: NO

Prompt: Returns: the outcome recorded for CN(C)CCC=C1c2ccccc2C=Cc2ccccc21 in this assay.
Completion: YES

Prompt: // param item: Nc1nc2c(ncn2COC(CO)CO)c(=O)[nH]1 ; yields the recorded call
Completion: YES

Prompt: Hi, sorry to bother you, what did the test record for COc1ccc(C2CNC(=O)C2)cc1OC1CCCC1 (stereo not drawn) ?
Completion: NO

Prompt: How did this test come out for CCCNCC(O)COc1ccccc1C(=O)CCc1ccccc1 (stereo not drawn) ?
Completion: NO

Prompt: Query: recorded result category for NCCS(=O)(=O)O in this test
Completion: NO

Prompt: Would you mind telling me which call this test gave CCOC(=O)c1ncn2c1CN(C)C(=O)c1cc(F)ccc1-2 ?
Completion: NO

Prompt: How did this test come out for Cc1cn([C@H]2C=C[C@@H](CO)O2)c(=O)[nH]c1=O ?
Completion: NO

Prompt: In this assay, the call recorded for CC1(CN2CCC(n3c(=O)[nH]c4ccccc43)CC2)OCc2ccccc2-n2cccc21 (stereo not drawn) was what?
Completion: YES

---

# System: ICS
# protocol: qHTS profiling for inhibitors of Plasmodium falciparum proliferation (AID 504749); also: nearly all actives have a fitted effect of over 60% in size; also: potency is read from the fitted curve at half-maximal effect
# assay.conditions: P. falciparum in erythrocytes, SYBR Green DNA, 72 h; series mostly up to 28.7 µM
Results filed as inconclusive are left out. Activity calls are given as the source filed them. Calls follow the shape of the dose curve; as a rule, active = well fitted inhibition curve with a large enough effect; inconclusive = small, poorly fitted or top-dose-only effect; inactive = flat fitted curve, though single readings scatter.
measured.parameter: Potency

The examples below pair each entry with its known result.
compound	Potency
Clc1ccc2nsnc2c1NC1=NCCN1	inactive
CC12CC3CC(C)(C1)CC(N)(C3)C2	inactive
COc1ccccc1OCCNCC(O)COc1cccc2[nH]c3ccccc3c12 (stereo not drawn)	7.08 µM (active)
NS(=O)(=O)c1cc2c(cc1Cl)NCNS2(=O)=O	inactive
NCCc1cnc[nH]1	inactive
CC[N+](CC)(CC)CCOc1cccc(OCC[N+](CC)(CC)CC)c1OCC[N+](CC)(CC)CC	inactive
CCCCc1oc2ccccc2c1C(=O)c1cc(I)c(OCCN(CC)CC)c(I)c1	3.55 µM (active)
CCOC(=O)c1ncn2c1CN(C)C(=O)c1cc(F)ccc1-2	inactive

Prompt: Provide ICS Potency reading for N[C@@H](Cc1c[nH]c2ccc(O)cc12)C(=O)O .
Completion: inactive

Prompt: Provide Potency, recorded with ICS, of Clc1ccccc1C(c1ccccc1)(c1ccccc1)n1ccnc1
Completion: 0.126 µM (active)

Prompt: Please respond with reported Potency (system ICS) for Cn1c(=O)c2c(ncn2C)n(C)c1=O .
Completion: inactive

Prompt: Specify Potency for CC(CCc1ccc(O)cc1)NCCc1ccc(O)c(O)c1 (stereo not drawn) , system ICS.
Completion: inactive

Prompt: # assay system ICS: give Potency of NCCS(=O)(=O)O
Completion: inactive

Prompt: With ICS as the test system, provide measured Potency for this compound: O=C(c1ccc(F)cc1)C1CCN(CCn2c(=O)[nH]c3ccccc3c2=O)CC1
Completion: inactive

Prompt: State Potency on ICS. Entry: CC(C)NCC(O)c1ccc(O)c(O)c1 (stereo not drawn)
Completion: inactive

---

# System: W2
# protocol: qHTS profiling for inhibitors of Plasmodium falciparum proliferation (AID 504749); also: nearly all actives have a fitted effect of over 60% in size
# assay.conditions: P. falciparum in erythrocytes, SYBR Green DNA, 72 h; series mostly up to 28.7 µM
Results filed as inconclusive are left out. Calls of active or inactive are those of the source. Calls follow the shape of the dose curve; as a rule, active = well fitted inhibition curve with a large enough effect; inconclusive = small, poorly fitted or top-dose-only effect; inactive = flat fitted curve, though single readings scatter.
API: response.call in True (active), False (inactive)

input.smiles	category.label
CN(C)CCOC(c1ccccc1)c1ccccc1	True
COc1nc(C)nc(Cl)c1NC1=NCCN1	False

Prompt: In this assay, the call recorded for O=C(Nc1ccc([N+](=O)[O-])cc1Cl)c1cc(Cl)ccc1O was what?
Completion: True

---

# protocol: Quantitative High-Throughput drug screen in 47 multiple myeloma cell lines against the NCATS MIPE library collection: H1112_PLB cell viability assay (AID 1918967; also: nearly all actives have a fitted effect of over 30% in size; also: potency is read from the fitted curve at half-maximal effect)
# assay.conditions: H1112 myeloma cells viability, ATP luminescence, 48 h; series mostly up to 45.8 µM
# Excerpt: PI: Beverly A. Mock Ph.D. Laboratory of Cancer Biology and Genetics, Center for Cancer Research, National Cancer Institute, National Institute of Health, Bethesda, Maryland […] 5; Detector; 425V; Luminescence; Viewlux PerkinElmer. […] 1. […] Briefly, the corresponding myeloma cell lines were screened in 1,536-well plates with 500 cells, 5-uL per well for inhibition of cell viability (assessed by measuring ATP levels with CellTiterGlo). […]
Results filed as inconclusive are left out. Active and inactive are the calls of the source. Calls follow the shape of the dose curve; as a rule, active = well fitted cell-killing curve with a large enough effect; inconclusive = small, poorly fitted or top-dose-only effect, or effect the other way; inactive = no such curve, though single readings can be large or run the other way.
measured.parameter: Potency

compound	Potency
O=C(C1CCCCC1)N1CC(=O)N2CCc3ccccc3C2C1 (stereo unspecified)	inactive
CC[C@@]1(O)C(=O)OCc2c1cc1n(c2=O)Cc2cc3c(CN(C)C)c(O)ccc3nc2-1	0.418 µM (active)
O=C1c2c(O)ccc(O)c2C(=O)c2c(NCCNCCO)ccc(NCCNCCO)c21	0.332 µM (active)
OCCN1CCN(CCCN2c3ccccc3Sc3ccc(C(F)(F)F)cc32)CC1	23.5 µM (active)
CC1(C)O[C@H]2CC(=O)OC[C@]23[C@H]2CC[C@@]4(C)[C@H](c5ccoc5)OC(=O)[C@H]5O[C@]54[C@]2(C)C(=O)C[C@@H]13	inactive

Prompt: Provide measured Potency value, entry: CN1C2CCC1CC(OC(=O)C(CO)c1ccccc1)C2 (stereo unspecified)
Completion: inactive

---

# protocol: qHTS of pediatric cancer cell lines to identify multiple opportunities for drug repurposing: Primary screen for Saos-2 cells (AID 1347097); also: nearly all actives have a fitted effect of over 40% in size; also: potency is read from the fitted curve at half-maximal effect
# assay.conditions: Saos-2 viability, CellTiter-Glo ATP luminescence, 48 h; series mostly up to 46 µM
Results filed as inconclusive are left out. Calls of active or inactive are those of the source. Calls follow the shape of the dose curve; as a rule, active = well fitted cell-killing curve with a large enough effect; inconclusive = small, poorly fitted or top-dose-only effect; inactive = no such curve, though single readings can be large or run the other way.
measured.parameter: Potency

input.smiles	Potency
Cc1ccc(-c2cc(C(F)(F)F)nn2-c2ccc(S(N)(=O)=O)cc2)cc1	16.8 µM (active)
C[C@@H]1CC(=O)NN=C1c1ccc(NN=C(C#N)C#N)cc1	18.7 µM (active)
O=c1[nH]cc(F)c(=O)[nH]1	inactive
Nc1ccn([C@H]2CC[C@@H](CO)O2)c(=O)n1	inactive

Now for another entry.
Prompt: Input Cc1cc(C(C)(C)C)c(O)c(C)c1CC1=NCCN1 , output reported Potency.
Completion: inactive

---

# Test system: MKL-2
# protocol: qHTS assay to identify novel small-molecules to repurpose for Merkel cell carcinoma treatment (AID 1296009); also: nearly all actives have a fitted effect of over 60% in size
# assay.conditions: MCC and control cell lines, CellTiter-Glo viability, 72 h; series mostly up to 46 µM
Inconclusive results are not listed. Active and inactive are the calls of the source. The call rests on the fitted dose curve; in most records, active means well fitted inhibition curve with a large enough effect; inconclusive means small, poorly fitted or top-dose-only effect; inactive means flat fitted curve, though single readings scatter.
Classes to choose from: yes (1) for active, no (0) for inactive

Recorded results for 6 compounds are shown here.
compound	category.label
O=c1c(-c2ccc(O)cc2)coc2cc(O)cc(O)c12	no (0)
COc1ccc2[nH]cc(CCNC(C)=O)c2c1	no (0)
Nc1c2c(nc3ccccc13)CCCC2	no (0)
NCCS(=O)(=O)O	no (0)
CN1C(C(=O)Nc2ccccn2)=C(O)c2ccccc2S1(=O)=O	no (0)
CC1COc2c(N3CCN(C)CC3)c(F)cc3c(=O)c(C(=O)O)cn1c23 (configuration not stated)	no (0)

Prompt: // return assay outcome for Cn1c(=O)c2c(ncn2C)n(C)c1=O
Completion: no (0)

Prompt: Tell me the recorded outcome of this test for NCCCCCC(=O)O .
Completion: no (0)

Prompt: So what was the verdict on O=c1c(O)c(-c2ccc(O)c(O)c2)oc2cc(O)cc(O)c12 in this test?
Completion: no (0)

Prompt: Tell me the assay call for Cc1cc(C(C)(C)C)cc(C)c1CC1=NCCN1 please.
Completion: no (0)

Prompt: Could you kindly confirm the outcome this assay logged for O=C1N(c2ccccc2)c2ccccc2C1(Cc1ccncc1)Cc1ccncc1 ?
Completion: no (0)

Prompt: Hi team, can someone confirm the assay call for CC1(C)O[C@H]2CC(=O)OC[C@]23[C@H]2CC[C@@]4(C)[C@H](c5ccoc5)OC(=O)[C@H]5O[C@]54[C@]2(C)C(=O)C[C@@H]13 ?
Completion: no (0)

Prompt: Record request — test call for CN(CCOc1ccc(NS(C)(=O)=O)cc1)CCc1ccc(NS(C)(=O)=O)cc1
Completion: no (0)

Prompt: # outcome recorded in this test, key = CC(C)(C)C(=O)Oc1ccc(S(=O)(=O)Nc2ccccc2C(=O)NCC(=O)O)cc1
Completion: no (0)

Prompt: Could you kindly confirm the outcome this assay logged for Clc1ccccc1C(c1ccccc1)(c1ccccc1)n1ccnc1 ?
Completion: no (0)

Prompt: For Fc1ccc([C@@H]2CCNC[C@H]2COc2ccc3c(c2)OCO3)cc1 , what call appears in the results of this test?
Completion: no (0)

Prompt: Which outcome was entered for the compound COc1ccc(C2CNC(=O)C2)cc1OC1CCCC1 (configuration not stated) in this test?
Completion: no (0)

Prompt: Hello, I am checking results. What call was entered for COc1ccccc1N1CCN(CC(O)COc2cccc3ccccc23)CC1 (configuration not stated) ?
Completion: no (0)

Prompt: Check the results log: what was the call for CN(Cc1cnc2nc(N)nc(N)c2n1)c1ccc(C(=O)N[C@@H](CCC(=O)O)C(=O)O)cc1 ?
Completion: no (0)

Prompt: What call does the record list for N[C@@H](Cc1c[nH]c2ccc(O)cc12)C(=O)O ?
Completion: no (0)

Prompt: Record request — test call for CN(C)CCCN1c2ccccc2CCc2ccc(Cl)cc21
Completion: yes (1)

Prompt: In this assay, the call recorded for CCOC(=O)Nc1ccc(NCc2ccc(F)cc2)nc1N was what?
Completion: no (0)

Prompt: Look up the recorded call for Cn1cnc2c1c(=O)[nH]c(=O)n2C in this test.
Completion: no (0)

Prompt: I'd appreciate the recorded outcome for CCOC(=O)C(C)(C)Oc1ccc(Cl)cc1 from this test.
Completion: no (0)

Prompt: Tell me the recorded outcome of this test for CN(C)C(=O)C(CCN1CCC(O)(c2ccc(Cl)cc2)CC1)(c1ccccc1)c1ccccc1 .
Completion: yes (1)

Prompt: For Clc1ccc2nsnc2c1NC1=NCCN1 , which call appears in the assay record?
Completion: no (0)

Prompt: What outcome does the record of this test show for CC(C)C(=O)Nc1ccc([N+](=O)[O-])c(C(F)(F)F)c1 ?
Completion: no (0)
